- testTarget: ATR/ATRIP(h) (Homo sapiens)
- Sequence (Q13535 whole entry): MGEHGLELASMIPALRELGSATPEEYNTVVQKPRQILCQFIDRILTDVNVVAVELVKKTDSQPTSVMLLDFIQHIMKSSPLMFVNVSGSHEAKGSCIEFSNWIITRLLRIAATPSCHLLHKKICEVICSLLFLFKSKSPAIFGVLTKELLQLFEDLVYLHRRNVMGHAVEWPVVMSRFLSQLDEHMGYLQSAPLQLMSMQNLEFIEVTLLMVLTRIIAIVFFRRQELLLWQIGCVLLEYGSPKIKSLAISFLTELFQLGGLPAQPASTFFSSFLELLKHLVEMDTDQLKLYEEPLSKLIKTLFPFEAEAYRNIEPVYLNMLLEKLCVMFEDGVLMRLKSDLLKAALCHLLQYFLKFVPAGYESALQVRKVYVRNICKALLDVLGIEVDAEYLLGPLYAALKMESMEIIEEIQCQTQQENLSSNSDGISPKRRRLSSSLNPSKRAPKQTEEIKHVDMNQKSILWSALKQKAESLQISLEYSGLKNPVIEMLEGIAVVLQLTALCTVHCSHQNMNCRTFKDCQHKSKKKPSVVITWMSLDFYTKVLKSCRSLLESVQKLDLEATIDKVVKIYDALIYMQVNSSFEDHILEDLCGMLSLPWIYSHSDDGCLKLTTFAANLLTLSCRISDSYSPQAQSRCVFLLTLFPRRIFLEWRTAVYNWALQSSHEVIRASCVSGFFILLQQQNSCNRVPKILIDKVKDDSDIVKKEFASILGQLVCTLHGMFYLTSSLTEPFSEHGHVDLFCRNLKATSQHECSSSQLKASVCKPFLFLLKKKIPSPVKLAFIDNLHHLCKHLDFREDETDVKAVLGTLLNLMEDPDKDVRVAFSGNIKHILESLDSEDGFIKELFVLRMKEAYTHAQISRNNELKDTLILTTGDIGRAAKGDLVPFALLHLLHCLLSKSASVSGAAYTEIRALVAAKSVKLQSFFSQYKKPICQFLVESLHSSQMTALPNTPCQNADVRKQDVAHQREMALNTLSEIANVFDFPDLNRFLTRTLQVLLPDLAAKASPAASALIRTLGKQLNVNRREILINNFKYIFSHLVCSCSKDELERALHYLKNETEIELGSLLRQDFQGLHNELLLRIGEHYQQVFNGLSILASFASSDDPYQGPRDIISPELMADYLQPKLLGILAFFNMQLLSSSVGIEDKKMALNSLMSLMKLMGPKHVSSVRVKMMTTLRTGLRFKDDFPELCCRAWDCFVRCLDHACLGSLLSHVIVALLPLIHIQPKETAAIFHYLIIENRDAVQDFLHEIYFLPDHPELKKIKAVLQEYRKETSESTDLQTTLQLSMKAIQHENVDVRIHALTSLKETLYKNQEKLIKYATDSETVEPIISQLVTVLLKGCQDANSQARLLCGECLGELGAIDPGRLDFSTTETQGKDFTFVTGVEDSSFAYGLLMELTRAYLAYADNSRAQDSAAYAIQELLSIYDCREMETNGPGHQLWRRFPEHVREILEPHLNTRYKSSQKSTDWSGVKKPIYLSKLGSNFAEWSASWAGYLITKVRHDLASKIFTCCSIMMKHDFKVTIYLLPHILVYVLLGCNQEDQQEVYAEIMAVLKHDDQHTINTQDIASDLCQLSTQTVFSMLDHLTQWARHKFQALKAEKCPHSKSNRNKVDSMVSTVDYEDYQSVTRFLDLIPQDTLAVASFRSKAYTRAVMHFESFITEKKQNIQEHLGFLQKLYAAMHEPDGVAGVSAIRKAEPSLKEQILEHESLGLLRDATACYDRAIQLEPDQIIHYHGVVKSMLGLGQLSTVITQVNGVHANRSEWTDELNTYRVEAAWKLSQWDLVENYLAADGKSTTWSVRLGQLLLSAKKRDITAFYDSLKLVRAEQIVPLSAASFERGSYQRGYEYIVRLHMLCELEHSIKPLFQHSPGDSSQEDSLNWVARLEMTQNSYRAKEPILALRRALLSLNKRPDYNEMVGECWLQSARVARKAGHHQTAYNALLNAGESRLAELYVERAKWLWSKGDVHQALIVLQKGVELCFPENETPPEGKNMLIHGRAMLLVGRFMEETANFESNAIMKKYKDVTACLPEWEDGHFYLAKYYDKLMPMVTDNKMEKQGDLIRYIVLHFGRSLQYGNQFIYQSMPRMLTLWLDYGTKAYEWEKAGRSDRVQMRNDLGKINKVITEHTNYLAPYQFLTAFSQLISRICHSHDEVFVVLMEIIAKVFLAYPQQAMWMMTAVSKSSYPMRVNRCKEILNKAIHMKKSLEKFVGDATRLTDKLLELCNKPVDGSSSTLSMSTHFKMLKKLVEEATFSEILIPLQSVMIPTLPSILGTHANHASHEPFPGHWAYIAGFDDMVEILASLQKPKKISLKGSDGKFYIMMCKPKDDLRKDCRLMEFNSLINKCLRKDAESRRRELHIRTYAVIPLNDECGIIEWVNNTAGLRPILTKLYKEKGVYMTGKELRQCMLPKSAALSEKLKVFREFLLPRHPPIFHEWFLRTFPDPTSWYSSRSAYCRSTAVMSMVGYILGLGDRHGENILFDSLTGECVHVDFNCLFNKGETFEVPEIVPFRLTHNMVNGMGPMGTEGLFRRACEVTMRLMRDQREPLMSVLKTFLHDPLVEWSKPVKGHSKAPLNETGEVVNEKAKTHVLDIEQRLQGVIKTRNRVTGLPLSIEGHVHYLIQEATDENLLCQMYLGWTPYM
- Sequence (Q8WXE1 whole entry partner): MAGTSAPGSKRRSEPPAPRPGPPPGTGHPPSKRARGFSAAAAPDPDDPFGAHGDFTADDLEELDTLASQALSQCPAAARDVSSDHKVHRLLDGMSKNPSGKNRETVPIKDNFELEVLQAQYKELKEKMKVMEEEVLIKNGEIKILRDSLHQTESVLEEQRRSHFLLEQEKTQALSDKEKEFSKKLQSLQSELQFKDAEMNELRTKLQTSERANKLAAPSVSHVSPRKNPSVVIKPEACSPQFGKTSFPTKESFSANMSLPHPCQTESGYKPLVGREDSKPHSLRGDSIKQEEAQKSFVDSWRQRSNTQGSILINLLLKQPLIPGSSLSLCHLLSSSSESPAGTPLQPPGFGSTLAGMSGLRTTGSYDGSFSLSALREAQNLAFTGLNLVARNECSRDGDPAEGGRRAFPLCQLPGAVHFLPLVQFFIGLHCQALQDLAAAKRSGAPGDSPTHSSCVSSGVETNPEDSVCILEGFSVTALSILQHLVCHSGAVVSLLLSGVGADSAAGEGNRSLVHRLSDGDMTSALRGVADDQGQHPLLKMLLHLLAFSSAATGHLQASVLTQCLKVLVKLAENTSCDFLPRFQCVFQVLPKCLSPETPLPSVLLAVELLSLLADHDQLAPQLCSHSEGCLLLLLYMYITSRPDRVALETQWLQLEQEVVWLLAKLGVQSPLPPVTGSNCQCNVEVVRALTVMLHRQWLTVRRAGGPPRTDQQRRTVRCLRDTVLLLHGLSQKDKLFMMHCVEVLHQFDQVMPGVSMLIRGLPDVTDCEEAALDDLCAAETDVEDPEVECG
- test: ATR/ATRIP(h) kinase activity, HTRF (Eurofins Cerep)
- testConditions: read-out: ATR/ATRIP(h) (enzyme, IC50)
pIC50: −log10 of the molar value.

| compound | pIC50 |
| --- | --- |
| COc1ncc(-c2ccc3ncc4c(c3c2)n(C(C)C)c(=O)n4C)cc1NS(=O)(=O)N1CCNCC1 [Compound 29] | 7.70 |
| COCC1(n2c(=O)n(C)c3cnc4ccc(-c5cnc(OC)c(NS(=O)(=O)N6CCNCC6)c5)cc4c32)CC1 [Compound 30] | 7.44 |
| COc1ncc(-c2ccc3ncc4c(c3c2)n(C2CC2)c(=O)n4C)cc1NS(=O)(=O)N1CCNCC1 [Compound 2] | 7.89 |
| COc1ncc(-c2ccc3ncc4c(c3c2)n(CC(F)(F)F)c(=O)n4C)cc1NS(=O)(=O)N1CCNCC1 [Compound 32] | 7.77 |
| COc1ncc(-c2ccc3ncc4c(c3c2)n([C@@H]2C[C@@H]2F)c(=O)n4C)cc1NS(=O)(=O)N1CCNCC1 [Compound 27] | 7.77 |
| COc1ncc(-c2ccc3ncc4c(C)nc(C5CC5)n4c3c2)cc1NS(=O)(=O)N1CCNCC1 [Compound 31] | 7.82 |
| COc1ncc(-c2ccc3ncc4cnc(C5CC5)n4c3c2)cc1NS(=O)(=O)N1CCNCC1 [Compound 1] | 8.05 |
| COc1ncc(-c2ccc3ncc4c(c3n2)n(C2CC2)c(=O)n4C)cc1NS(=O)(=O)N1CCNCC1 [Compound 28] | 7.89 |
